Sourced from the supplement of paper PMC10307832

- System: NCI-H650
- assay.notes: relative viability (nuclei count vs DMSO), 5 days (fraction); higher = more cells survive
- condition: first compound 0.3162 µM
experimental.endpoint: relative viability
Enter the number alone.

**Q:** Give recorded relative viability with NCI-H650 for the following molecule: O=c1cc(N2CCOCC2)oc2c(-c3cccc4c3sc3ccccc34)cccc12 + Cc1nc(NC(=O)N2CCC[C@H]2C(N)=O)sc1-c1ccnc(C(C)(C)C(F)(F)F)c1 [Alpelisib] (partner 2 µM)
**A:** 1.21

**Q:** # value lookup — system NCI-H650, readout relative viability, item O=c1cc(N2CCOCC2)oc2c(-c3cccc4c3sc3ccccc34)cccc12 + NC(=O)Nc1cc(-c2cccc(F)c2)sc1C(=O)N[C@H]1CCCNC1 [AZD7762] (partner 0.2 µM)
**A:** 1.15

**Q:** GET /values?readout=relative viability&system=NCI-H650&item= CCN(CC)CCCCNc1ncc2cc(-c3cc(OC)cc(OC)c3)c(NC(=O)NC(C)(C)C)nc2n1 + NC(=O)Nc1cc(-c2cccc(F)c2)sc1C(=O)N[C@H]1CCCNC1 [AZD7762] (partner 0.2 µM)
**A:** 1.22

**Q:** Find the measured relative viability: item O=c1cc(N2CCOCC2)oc2c(-c3cccc4c3sc3ccccc34)cccc12 + COc1cc2c(Oc3ccc(NC(=O)C4(C(=O)Nc5ccc(F)cc5)CC4)cc3F)ccnc2cc1OCCCN1CCOCC1 [Foretinib] (partner 0.25 µM) , target or system NCI-H650.
**A:** 1.01

###

- System: 201T
- assay.notes: relative viability (nuclei count vs DMSO), 5 days (fraction); higher = more cells survive
- condition: first compound 2.53 µM
experimental.endpoint: relative viability
Response field accepts a number only; no unit should be typed.

**Q:** Hello, I am looking for reported relative viability with 201T for O=c1cc(-c2cccc3c2Sc2ccccc2S3)oc(N2CCOCC2)c1 + CS(=O)(=O)CCNCc1ccc(-c2ccc3ncnc(Nc4ccc(OCc5cccc(F)c5)c(Cl)c4)c3c2)o1 [Lapatinib] (partner 2 µM) . Could you help?
**A:** 0.951

**Q:** Hello, I am looking for reported relative viability with 201T for COc1nc(C)cnc1NS(=O)(=O)c1cccnc1-c1ccc(-c2nnco2)cc1 [Zibotentan] + COc1cc2c(Oc3ccc(NC(=O)C4(C(=O)Nc5ccc(F)cc5)CC4)cc3F)ccnc2cc1OCCCN1CCOCC1 [Foretinib] (partner 0.25 µM) . Could you help?
**A:** 1.15

**Q:** Lookup: relative viability / 201T / O=c1cc(-c2cccc3c2Sc2ccccc2S3)oc(N2CCOCC2)c1 + NC(=O)Nc1cc(-c2cccc(F)c2)sc1C(=O)N[C@H]1CCCNC1 [AZD7762] (partner 0.2 µM)
**A:** 0.655

**Q:** Item COc1nc(C)cnc1NS(=O)(=O)c1cccnc1-c1ccc(-c2nnco2)cc1 [Zibotentan] + Cc1nc(Nc2ncc(C(=O)Nc3c(C)cccc3Cl)s2)cc(N2CCN(CCO)CC2)n1 [Dasatinib] (partner 0.075 µM) with 201T - relative viability?
**A:** 0.624

**Q:** Query relative viability on 201T for COc1nc(C)cnc1NS(=O)(=O)c1cccnc1-c1ccc(-c2nnco2)cc1 [Zibotentan] + COc1cccc2cc(-c3nc([C@H]4CC[C@H](C(=O)O)CC4)n4ncnc(N)c34)[nH]c12 [OSI-027] (partner 0.5 µM)
**A:** 0.755

**Q:** Give recorded relative viability with 201T for the following compound: COc1nc(C)cnc1NS(=O)(=O)c1cccnc1-c1ccc(-c2nnco2)cc1 [Zibotentan] + CC(=O)Nc1cccc(-n2c(=O)n(C3CC3)c(=O)c3c(Nc4ccc(I)cc4F)n(C)c(=O)c(C)c32)c1 [Trametinib] (partner 0.02 µM)
**A:** 0.746

**Q:** Item: COc1nc(C)cnc1NS(=O)(=O)c1cccnc1-c1ccc(-c2nnco2)cc1 [Zibotentan] + CC(C)C[C@H](NC(=O)[C@H](Cc1ccccc1)NC(=O)c1cnccn1)B(O)O [Bortezomib] (partner 0.002 µM) Test system: 201T Read-out: relative viability Value: ?
**A:** 1.11

**Q:** Query relative viability on 201T for COc1nc(C)cnc1NS(=O)(=O)c1cccnc1-c1ccc(-c2nnco2)cc1 [Zibotentan] + CC(=O)c1c(C)c2cnc(Nc3ccc(N4CCNCC4)cn3)nc2n(C2CCCC2)c1=O [Palbociclib] (partner 0.5 µM)
**A:** 0.363

**Q:** Return relative viability measured with 201T given this compound: COc1nc(C)cnc1NS(=O)(=O)c1cccnc1-c1ccc(-c2nnco2)cc1 [Zibotentan] + NC(=O)Nc1cc(-c2cccc(F)c2)sc1C(=O)N[C@H]1CCCNC1 [AZD7762] (partner 0.2 µM)
**A:** 0.569

**Q:** Item O=c1cc(-c2cccc3c2Sc2ccccc2S3)oc(N2CCOCC2)c1 + Nc1ncn([C@H]2C[C@H](O)[C@@H](CO)O2)c(=O)n1 [Decitabine] (partner 2 µM) with 201T - relative viability?
**A:** 0.816

**Q:** Checklist item: relative viability tested on 201T, entry COc1nc(C)cnc1NS(=O)(=O)c1cccnc1-c1ccc(-c2nnco2)cc1 [Zibotentan] + Cc1nc(NC(=O)N2CCC[C@H]2C(N)=O)sc1-c1ccnc(C(C)(C)C(F)(F)F)c1 [Alpelisib] (partner 2 µM) , value?
**A:** 1.11

**Q:** Kindly state the measured relative viability obtained for O=c1cc(-c2cccc3c2Sc2ccccc2S3)oc(N2CCOCC2)c1 + CC(C)C[C@H](NC(=O)[C@H](Cc1ccccc1)NC(=O)c1cnccn1)B(O)O [Bortezomib] (partner 0.002 µM) with 201T.
**A:** 1.02

**Q:** Form field: relative viability recorded for COc1nc(C)cnc1NS(=O)(=O)c1cccnc1-c1ccc(-c2nnco2)cc1 [Zibotentan] + C[C@@H](Oc1cc(-c2cnn(C3CCNCC3)c2)cnc1N)c1c(Cl)ccc(F)c1Cl [Crizotinib] (partner 1 µM) with 201T (enter value)
**A:** 1.07
